- assayed-target: MAO-A (amine oxidase [flavin-containing] A) (Homo sapiens, UniProt P21397)
- Sequence (P21397 whole entry): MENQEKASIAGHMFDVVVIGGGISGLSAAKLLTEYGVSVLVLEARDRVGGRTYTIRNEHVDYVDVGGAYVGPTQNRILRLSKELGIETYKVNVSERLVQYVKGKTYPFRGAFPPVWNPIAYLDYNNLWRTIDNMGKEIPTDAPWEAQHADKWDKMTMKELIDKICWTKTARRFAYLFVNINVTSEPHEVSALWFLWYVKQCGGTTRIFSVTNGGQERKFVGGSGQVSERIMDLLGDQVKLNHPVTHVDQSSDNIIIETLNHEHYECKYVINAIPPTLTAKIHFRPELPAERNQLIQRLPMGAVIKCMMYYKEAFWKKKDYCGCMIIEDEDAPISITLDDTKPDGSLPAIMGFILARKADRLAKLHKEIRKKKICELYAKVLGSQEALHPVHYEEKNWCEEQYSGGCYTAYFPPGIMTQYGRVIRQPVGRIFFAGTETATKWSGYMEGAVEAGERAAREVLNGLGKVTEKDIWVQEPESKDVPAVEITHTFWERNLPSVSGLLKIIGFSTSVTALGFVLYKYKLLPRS
- experiment-notes: in vitro
- setup-conditions: human MAO-A enzyme, probe p-tyramine
- Description: Inhibition of human MAO-A using p-tyramine as substrate at 100 uM by amplex red staining based fluorometric analysis relative to control
recorded-metric: inhibition at 100 µM (%)

COc1ccc(-c2cc3ccc4ccccc4c3oc2=O)cc1OC :: 24

I. COc1ccc(-c2cc3ccc4ccccc4c3oc2=O)cc1
II. COc1ccc(-c2cc3cc4ccccc4cc3oc2=O)cc1
III. COc1ccc(-c2cc3cc4ccccc4cc3oc2=O)cc1OC
[Q] Arrange by inhibition at 100 µM, high to low. Use the labels to give the requested order.
[A] III, I, II
(III: 36.6%, I: 15.3%, II: 3.85%)

###

Target protein (sequence): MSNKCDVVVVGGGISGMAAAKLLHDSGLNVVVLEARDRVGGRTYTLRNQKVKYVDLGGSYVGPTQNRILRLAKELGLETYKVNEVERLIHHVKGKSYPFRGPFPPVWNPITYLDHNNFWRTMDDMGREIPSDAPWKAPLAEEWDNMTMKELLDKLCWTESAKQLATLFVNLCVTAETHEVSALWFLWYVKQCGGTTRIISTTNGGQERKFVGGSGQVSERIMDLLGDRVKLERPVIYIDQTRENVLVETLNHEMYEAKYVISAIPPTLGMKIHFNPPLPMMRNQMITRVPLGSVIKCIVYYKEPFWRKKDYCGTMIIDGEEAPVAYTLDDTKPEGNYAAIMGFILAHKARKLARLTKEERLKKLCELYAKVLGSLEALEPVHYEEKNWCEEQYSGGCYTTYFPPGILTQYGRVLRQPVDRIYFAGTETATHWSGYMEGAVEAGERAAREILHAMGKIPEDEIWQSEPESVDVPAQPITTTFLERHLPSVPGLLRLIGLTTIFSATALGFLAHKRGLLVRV
recorded-metric: pIC50
API: returns pIC50 as number; meaning -log10 of concentration in mol/L.

[Q] Fill in the blank: the reported pIC50 of `COc1ccc(-c2cc3ccc4ccccc4c3oc2=O)cc1OC` is ____.
[A] 6.62
